From: PubChem BioAssay AID1422

Target: Prostaglandin E2 receptor EP2 subtype (Homo sapiens)
Assay: blockers of PGE2-driven EP2 cAMP signalling – TR-FRET cAMP, C6 glioma cells, primary screen (AID 1422);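 further: rat C6 glioma host cells with rolipram phosphodiesterase inhibitor present; the protocol text gives 20 µM as final concentration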
Conditions: C6 glioma cells expressing human EP2, cAMP TR-FRET; at 25 µM; stronger effect = higher value; cells stimulated with saturating PGE2
In all, about 260,000 compounds went through this assay and about 1,300 (0.5%) were called active. The full list was thinned out, with actives kept by preference.
The following compounds are shown together with reported inhibition values.
Reported Property: inhibition

[[record]]
smiles_data = "CCOC(=O)N1CCN(C(=O)COc2ccc(Cl)cc2C)CC1"
reported_property = "inhibition"
value_reported = "12.7% (inactive)"

[[record]]
smiles_data = "O=C(Nc1ccc2oc(-c3cccnc3)nc2c1)c1cccc2ccccc12"
reported_property = "inhibition"
value_reported = "10.6% (inactive)"

[[record]]
smiles_data = "Cc1cc(NC(=O)COC(=O)COc2ccc(Cl)cc2C)c([N+](=O)[O-])cc1C"
reported_property = "inhibition"
value_reported = "5.32% (inactive)"

[[record]]
smiles_data = "Cc1cc(Cl)ccc1OCC(=O)Oc1c(Cl)c(Cl)c(Cl)c(Cl)c1Cl"
reported_property = "inhibition"
value_reported = "50.2% (active)"


* * *

Molecular target: Prostaglandin E2 receptor EP2 subtype (Homo sapiens) (UniProt P43116)
Sequence (P43116 whole entry, looked up): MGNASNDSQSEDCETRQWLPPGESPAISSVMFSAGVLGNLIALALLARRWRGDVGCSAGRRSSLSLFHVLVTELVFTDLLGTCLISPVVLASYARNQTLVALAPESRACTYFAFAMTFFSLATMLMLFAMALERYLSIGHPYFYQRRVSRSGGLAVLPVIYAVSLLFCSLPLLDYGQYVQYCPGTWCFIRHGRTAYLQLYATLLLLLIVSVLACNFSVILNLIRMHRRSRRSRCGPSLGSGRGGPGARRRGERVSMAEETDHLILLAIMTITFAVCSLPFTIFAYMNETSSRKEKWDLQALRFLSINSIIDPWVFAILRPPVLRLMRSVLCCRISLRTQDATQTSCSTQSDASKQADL
Assay: blockers of PGE2-driven EP2 cAMP signalling – TR-FRET cAMP, C6 glioma cells, primary screen (AID 1422);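 further: rat C6 glioma host cells with rolipram phosphodiesterase inhibitor present; the protocol text gives 20 µM as final concentration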
Details: C6 glioma cells expressing human EP2, cAMP TR-FRET; at 25 µM; stronger effect = higher value; cells stimulated with saturating PGE2
In all, about 260,000 compounds went through this assay and about 1,300 (0.5%) were called active. The entries come from a sample that favours actives as a whole.
Overview of reported inhibition across a group of compounds:
Reported Property: inhibition (%)

[[record]]
compound = "O=C(Nc1ccccc1Cl)/C(Cl)=C(\\Cl)S(=O)c1ccccc1 (stereo not given)"
assay_target = "Prostaglandin E2 receptor EP2 subtype (Homo sapiens) (UniProt P43116)"
value_reported = 57.5

[[record]]
compound = "COc1ccc(CN(Cc2cccnc2)C2CC(C)(C)NC(C)(C)C2)cc1OC"
assay_target = "Prostaglandin E2 receptor EP2 subtype (Homo sapiens) (UniProt P43116)"
value_reported = 9.23

[[record]]
compound = "Cc1cccc(NC(=S)N(Cc2cc3ccc(C)c(C)c3[nH]c2=O)CC2CCCO2)c1 (stereo not given)"
assay_target = "Prostaglandin E2 receptor EP2 subtype (Homo sapiens) (UniProt P43116)"
value_reported = 8.93

[[record]]
compound = "O=c1cc(CSc2nnc(Cn3nnc4ccccc43)o2)c2ccccc2[nH]1"
assay_target = "Prostaglandin E2 receptor EP2 subtype (Homo sapiens) (UniProt P43116)"
value_reported = 7.33

[[record]]
compound = "C/C(=N/Nc1nc(-c2ccccc2)c(CC(=O)O)s1)c1ccccc1"
assay_target = "Prostaglandin E2 receptor EP2 subtype (Homo sapiens) (UniProt P43116)"
value_reported = 11.6

[[record]]
compound = "COC(=O)c1ccccc1NC(=O)CSc1nnc2c(C)cc3cc4c(cc3n12)OCCO4"
assay_target = "Prostaglandin E2 receptor EP2 subtype (Homo sapiens) (UniProt P43116)"
value_reported = 7.88

[[record]]
compound = "C=COCCNC(=O)Cn1nc(C)n2c(cc3occc32)c1=O"
assay_target = "Prostaglandin E2 receptor EP2 subtype (Homo sapiens) (UniProt P43116)"
value_reported = 7.9

[[record]]
compound = "O=C(/C=C/c1ccc(Cl)c([N+](=O)[O-])c1)c1ccc(O)cc1"
assay_target = "Prostaglandin E2 receptor EP2 subtype (Homo sapiens) (UniProt P43116)"
value_reported = 2.09

[[record]]
compound = "COc1cc(OC)c(OC)cc1/C=N/Nc1ncnc2c1[nH]c1ccc(C)cc12"
assay_target = "Prostaglandin E2 receptor EP2 subtype (Homo sapiens) (UniProt P43116)"
value_reported = 5.82

[[record]]
compound = "CC1(C)CC2CC(C)(CN2C(=O)c2ccc(Cl)cc2)C1 (stereo not given)"
assay_target = "Prostaglandin E2 receptor EP2 subtype (Homo sapiens) (UniProt P43116)"
value_reported = 13.4

[[record]]
compound = "CC(Sc1nnc(-c2cccnc2)n1-c1ccccc1)C(=O)Nc1ccc(N)cc1 (stereo not given)"
assay_target = "Prostaglandin E2 receptor EP2 subtype (Homo sapiens) (UniProt P43116)"
value_reported = 14.6

[[record]]
compound = "COc1ccccc1/C=N\\Nc1cc(C)nc(-n2nc(C)cc2C)n1"
assay_target = "Prostaglandin E2 receptor EP2 subtype (Homo sapiens) (UniProt P43116)"
value_reported = 3.92

[[record]]
compound = "Cc1ccc(-n2c(SCC(=O)NC(C)(C)C)nnc2-c2cccnc2)cc1C"
assay_target = "Prostaglandin E2 receptor EP2 subtype (Homo sapiens) (UniProt P43116)"
value_reported = 15.1

[[record]]
compound = "CC1CCN(c2nc3c(c(=O)[nH]2)CCN(Cc2ccc(C(F)(F)F)cc2)C3)CC1"
assay_target = "Prostaglandin E2 receptor EP2 subtype (Homo sapiens) (UniProt P43116)"
value_reported = 6.96

[[record]]
compound = "Cc1cccc(N(CC(=O)NC2CCCC2)C(=O)c2snc(C(=O)NC3CCCCC3)c2N)c1C"
assay_target = "Prostaglandin E2 receptor EP2 subtype (Homo sapiens) (UniProt P43116)"
value_reported = 13.6

[[record]]
compound = "COc1ccc(C(O)CN2CCC(O)(c3ccc4c(c3)OCO4)CC2)cc1 (stereo not given)"
assay_target = "Prostaglandin E2 receptor EP2 subtype (Homo sapiens) (UniProt P43116)"
value_reported = 6.32

[[record]]
compound = "COc1ccc2[nH]c(=S)cc(C)c2c1"
assay_target = "Prostaglandin E2 receptor EP2 subtype (Homo sapiens) (UniProt P43116)"
value_reported = 7.37

[[record]]
compound = "CC(NC(=O)C1CCN(c2nc3ccccc3n2C)CC1)c1ccccc1 (stereo not given)"
assay_target = "Prostaglandin E2 receptor EP2 subtype (Homo sapiens) (UniProt P43116)"
value_reported = 7.13

[[record]]
compound = "O=C(Nc1cccnc1)c1ccc(Cl)c([N+](=O)[O-])c1"
assay_target = "Prostaglandin E2 receptor EP2 subtype (Homo sapiens) (UniProt P43116)"
value_reported = 3.46

[[record]]
compound = "COc1cccc(/C=N/Nc2ncc(C(F)(F)F)cc2Cl)c1O"
assay_target = "Prostaglandin E2 receptor EP2 subtype (Homo sapiens) (UniProt P43116)"
value_reported = 4.36

[[record]]
compound = "CCCC(c1nnnn1C1CCCCC1)N1CCN(c2ccccc2)CC1 (stereo not given)"
assay_target = "Prostaglandin E2 receptor EP2 subtype (Homo sapiens) (UniProt P43116)"
value_reported = 5.51

[[record]]
compound = "CCn1c(C)cc2cc(NC(=O)CCCn3nc(C)cc3C)ccc21"
assay_target = "Prostaglandin E2 receptor EP2 subtype (Homo sapiens) (UniProt P43116)"
value_reported = 6.1

[[record]]
compound = "Cc1cccc2cc(CN(Cc3cccs3)C(=O)Nc3ccc(Cl)cc3)c(=O)[nH]c12"
assay_target = "Prostaglandin E2 receptor EP2 subtype (Homo sapiens) (UniProt P43116)"
value_reported = 6.58

[[record]]
compound = "N#CSc1ccc(N2CCCCC2)cc1"
assay_target = "Prostaglandin E2 receptor EP2 subtype (Homo sapiens) (UniProt P43116)"
value_reported = 6.1

[[record]]
compound = "Cc1ccccc1C(=O)Nc1ccc(N2CCCCCC2)cc1"
assay_target = "Prostaglandin E2 receptor EP2 subtype (Homo sapiens) (UniProt P43116)"
value_reported = -0.3

[[record]]
compound = "O=C(CN1N=C(c2ccccc2)Cn2c(cc3sccc32)C1=O)NCC1CCCO1 (stereo not given)"
assay_target = "Prostaglandin E2 receptor EP2 subtype (Homo sapiens) (UniProt P43116)"
value_reported = 4.16

[[record]]
compound = "CCCN1C(=O)/C(=C/N(C(C)=O)c2ccccc2)SC1=S"
assay_target = "Prostaglandin E2 receptor EP2 subtype (Homo sapiens) (UniProt P43116)"
value_reported = 12.5

[[record]]
compound = "Cc1ccc(-c2nc(C)sc2CC(=O)O)cc1"
assay_target = "Prostaglandin E2 receptor EP2 subtype (Homo sapiens) (UniProt P43116)"
value_reported = 8.08

[[record]]
compound = "O=C1C=C(c2ccc(Cl)cc2)C(=O)N1Nc1ccccc1"
assay_target = "Prostaglandin E2 receptor EP2 subtype (Homo sapiens) (UniProt P43116)"
value_reported = 134

[[record]]
compound = "CCOc1ccccc1NC(=O)CSc1nnnn1-c1ccc(F)cc1"
assay_target = "Prostaglandin E2 receptor EP2 subtype (Homo sapiens) (UniProt P43116)"
value_reported = 10.9

